koff reference
study_target: T1, human beta-Klotho (KLB) (human, UniProt Q86Z14 53-997);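 note: Anti-KLB antibodies captured on anti-human Fc CM5 chip, KLB injected as analyte, 180 s association and 1800 s dissociation, fitted to 1:1 binding model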
T1 construct: bought protein; also called human KLB
T1 sequence (looked up): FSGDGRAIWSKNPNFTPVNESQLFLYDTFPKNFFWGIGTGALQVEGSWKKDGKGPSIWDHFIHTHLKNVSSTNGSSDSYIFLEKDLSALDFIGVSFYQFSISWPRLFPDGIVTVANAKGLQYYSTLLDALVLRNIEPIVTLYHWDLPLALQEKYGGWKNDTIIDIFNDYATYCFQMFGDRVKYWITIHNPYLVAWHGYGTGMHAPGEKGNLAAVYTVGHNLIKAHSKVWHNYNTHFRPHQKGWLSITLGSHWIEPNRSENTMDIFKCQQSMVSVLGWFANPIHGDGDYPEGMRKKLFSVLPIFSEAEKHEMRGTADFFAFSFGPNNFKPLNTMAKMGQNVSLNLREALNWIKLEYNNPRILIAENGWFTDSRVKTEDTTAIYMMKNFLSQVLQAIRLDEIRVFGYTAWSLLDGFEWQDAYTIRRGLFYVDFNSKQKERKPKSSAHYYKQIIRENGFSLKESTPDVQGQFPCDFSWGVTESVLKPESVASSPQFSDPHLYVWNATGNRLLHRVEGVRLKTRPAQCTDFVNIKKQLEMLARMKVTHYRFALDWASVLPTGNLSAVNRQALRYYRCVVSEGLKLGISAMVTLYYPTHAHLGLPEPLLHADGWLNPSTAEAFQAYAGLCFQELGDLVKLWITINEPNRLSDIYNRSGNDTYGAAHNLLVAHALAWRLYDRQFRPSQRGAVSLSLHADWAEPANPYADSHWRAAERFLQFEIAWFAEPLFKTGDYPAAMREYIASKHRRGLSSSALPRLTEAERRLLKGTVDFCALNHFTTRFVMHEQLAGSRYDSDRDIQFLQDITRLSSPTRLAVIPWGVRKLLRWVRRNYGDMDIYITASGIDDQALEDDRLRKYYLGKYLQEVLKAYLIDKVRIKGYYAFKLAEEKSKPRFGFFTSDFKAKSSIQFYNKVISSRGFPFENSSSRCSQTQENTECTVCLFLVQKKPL
assay_summary: SPR

binder	koff
Ab0202 (antibody, IgG4, V domains shown, IgG4 PE) VH: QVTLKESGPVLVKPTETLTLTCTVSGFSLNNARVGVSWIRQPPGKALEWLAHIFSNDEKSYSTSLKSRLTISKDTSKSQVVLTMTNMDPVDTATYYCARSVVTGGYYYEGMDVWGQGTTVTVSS VL: SYVLTQPPSVSVAPGQTARITCGGNNIGSESVHWYQQKPGQAPVLVVYYDSDRPSGIPERFSGSNSGNTATLTISRVEAGDEADYYCQVWDGNSDHVVFGGGTKLTVLG	0.00161 s⁻¹
Ab0307 (antibody, IgG4, V domains shown, IgG4 PE) VH: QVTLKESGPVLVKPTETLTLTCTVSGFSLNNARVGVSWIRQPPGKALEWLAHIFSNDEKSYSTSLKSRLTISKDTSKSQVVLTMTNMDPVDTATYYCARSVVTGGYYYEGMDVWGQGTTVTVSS VL: SYVLTQPPSVSVAPGQTARITCGGNNIGSESVHWYQQKPGQAPVLVVYYDSDRPSGIPERFSGSNSGNTATLTISRVEAGDEADYYCQVWDGESDHVVFGGGTKLTVLG	0.00118 s⁻¹
Ab0354 (antibody, IgG4, V domains shown, IgG4 PE) VH: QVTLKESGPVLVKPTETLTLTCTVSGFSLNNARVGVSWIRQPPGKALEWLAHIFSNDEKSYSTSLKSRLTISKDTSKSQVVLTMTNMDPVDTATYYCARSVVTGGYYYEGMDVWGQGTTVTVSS VL: SYVLTQPPSVSVAPGQTARITCGGSNIGSESVHWYQQKPGQAPVLVVYEESDRPSGIPERFSGSNSGNTATLTISRVEAGDEADYYCQVWHGSSDHVVFGGGTKLTVLG	0.00158 s⁻¹
Ab0309 (antibody, IgG4, V domains shown, IgG4 PE) VH: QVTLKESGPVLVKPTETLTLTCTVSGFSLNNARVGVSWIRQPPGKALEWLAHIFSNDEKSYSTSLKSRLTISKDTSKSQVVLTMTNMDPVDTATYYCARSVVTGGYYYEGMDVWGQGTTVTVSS VL: SYVLTQPPSVSVAPGQTARITCGGNNIGSESVHWYQQKPGQAPVLVVYDESDRPSGIPERFSGSNSGNTATLTISRVEAGDEADYYCQVWDGESDHVVFGGGTKLTVLG	0.00103 s⁻¹
Ab0295 (antibody, IgG4, V domains shown, IgG4 PE) VH: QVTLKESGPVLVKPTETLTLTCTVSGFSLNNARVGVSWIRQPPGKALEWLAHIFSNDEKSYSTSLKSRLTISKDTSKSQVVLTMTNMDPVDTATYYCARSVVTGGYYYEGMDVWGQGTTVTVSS VL: SYVLTQPPSVSVAPGQTARITCGGSNIGSESVHWYQQKPGQAPVLVVYYDSDRPSGIPERFSGSNSGNTATLTISRVEAGDEADYYCQVWDGNSDHVVFGGGTKLTVLG	0.00157 s⁻¹
